Assayed Target: full length Udorn AM2 protein (Influenza A virus, UniProt P0DOF5)
Sequence (P0DOF5 whole entry, looked up): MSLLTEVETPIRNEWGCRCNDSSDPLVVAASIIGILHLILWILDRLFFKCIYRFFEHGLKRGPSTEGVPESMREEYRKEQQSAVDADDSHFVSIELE
Measurement Protocol: Two-electrode voltage clamp
Type: cell-based, influenza virus A/Udorn/72
Experimental Parameters: Table 1; 100 uM inhibitor; TEV, Xenopus oocytes, pH 5.5, -20 mV
Rule: AM2 remaing Activity after 100uM inhibition under 70% gives criterion not met, otherwise criterion met.

// below: answered compounds
Q: Kindly determine if AM2 remaing Activity after 100uM inhibition recorded for C1CCC2(CC1)CCN(CC1CC1)CC2 [Compound 1] is above or exactly 70%.
A: criterion met

Q: AM2 remaing Activity after 100uM inhibition >= 70% for C1CCC2(CC1)CCN(CC1CCCC1)CC2 [Compound 2] ?
A: criterion met

Q: Item c1ccc(CN2CCC3(CCCCC3)CC2)nc1 [Compound 6] with AM2 remaing Activity after 100uM inhibition of 70% or above?
A: criterion met

Q: Is reported AM2 remaing Activity after 100uM inhibition greater than or equal to 70% here: c1c[nH]c(CN2CCC3(CCCCC3)CC2)n1 [Compound 8]
A: criterion not met

More entries:
Q: Does Cc1cc(CN2CCC3(CCCCC3)CC2)no1 [Compound 5] have a reported AM2 remaing Activity after 100uM inhibition of at least 70%?
A: criterion met

Q: Answer whether AM2 remaing Activity after 100uM inhibition of Cn1cc(CN2CCC3(CCCCC3)CC2)cn1 [Compound 4] is greater than or equal to 70%.
A: criterion met

Q: Threshold query (AM2 remaing Activity after 100uM inhibition >= 70%) on c1cc(CN2CCC3(CCCCC3)CC2)cs1 [Compound 3]
A: criterion met

Q: Decide: is the reported value of AM2 remaing Activity after 100uM inhibition for C1CCC2(CC1)CCN(C1=NCCN1)CC2.I [BL-1743, reference compound] equal to or greater than 70%?
A: criterion not met
